- test target: T1, AAV8
- T1 construct: also called adeno-associated virus serotype 8
- assay summary: SPR, AAV on CM5 chip;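 note: surface plasmon resonance with AAV amine-coupled to the chip as ligand, nanobodies injected as analyte over a concentration series, rate constants and affinity fitted from binding curves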
Give log10(koff) for every item shown.
Lab note - koff converted to log10 from values in s⁻¹.

INPUT: Fill blank: measured log10(koff) of the binder A4-041 (VHH) VHH: VQLQESGGGLVQPGGSLRLSCAASGRGFSINTMGWYRQAPGKQRELVATVTRGGSTNYANSVKGRFTISRDNAKNTVYLQMNSLRPEDTAVYYCHVDELRQSSWTTSNLWGQGTQVTVSS is ____.
OUTPUT: -2.61

INPUT: Please do the same for A4-011 (VHH) VHH: VQLQESGGGLVQAGGSLRLSCAASGSIFSINSMGWYRQAPGKQRELVATVTRGGNTNYAGSVKGRFTISRDNAKNTVYLQMNSLRPEDTAVYYCHVDEVRESSWTTSNLWGQGTQVTVSS as well.
OUTPUT: -2.57

INPUT: Please do the same for A4-027 (VHH) VHH: VQLQESGGGLVQPGGSLRLSCAASGSNFSINTMGWYRQAPGKQRELVAALTRGGSTNYADSVKGRFTISRDNAKNTVYLQMNSLRPEDTAVYYCHVDEVRESSWTTSNLWGQGTQVTVSS as well.
OUTPUT: -3.07

INPUT: Please do the same for A4-025 (VHH) VHH: VQLQESGGGLVQPGGSLRLSCAASGSNFRINTMGWYRQAPGKQRELVATVTRGGSTNYADSVKGRFTISRDNPKDTVYLQMNSLRPEDTAVYYCHVDEVRESSWTTSNLWGQGTQVTVSS as well.
OUTPUT: -3.59

INPUT: Please do the same for A4-023 (VHH) VHH: VQLQESGGGLVQPGGSLRLSCAASGSAFSINTMGWYRQAPGKQRELVASVTPGGSTNYADSVKGRFTISRDNAKNTIYLQMNSLRPEDTAVYYCHLDEVRESSWTTSNLWGQGTQVTVSS as well.
OUTPUT: -2.90

INPUT: Please do the same for A4-013 (VHH) VHH: VQLQESGGGLVQPGGSLRLSCAASGSRFSINSMGWYRQAPGKQRELVATVTRGGNTNYADSVKGRFTISRDNAKNTVYLQMNSLRPEDTAVYYCHVDEVRESSWTTSNLWGQGTQVTVSS as well.
OUTPUT: -2.13

INPUT: Please do the same for A4-002 (VHH) VHH: VQLQESGGGLVQPGGSLRLSCAASGRSFSINTMGWYRQAPGKQRELVAAVTRGGSTNYAGSVKGRFTISRDNAKNTVYLQMNSLRPEDTAVYYCHIDEVRQSSWTTSNIWGQGTQVTVSS as well.
OUTPUT: -2.21

INPUT: Please do the same for A4-005 (VHH) VHH: VQLQESGGGLVQAGGSLRLSCAASGRHFSINTMGWYRQAPGKQRELVAAVTRGGGTNYAGSVKGRFTISRDNAKNTVYLQMNSLRPEDTAVYYCHIDEVRQSSWTTSNIWGQGTQVTVSS as well.
OUTPUT: -2.71
